# Test system: UACC-62 melanoma
# protocol_notes: NCI tumour cell line growth inhibition, 48 h; in the data active means GI50 below about 0.43 µM; inactive means the rest
Field 'call' accepts active, inactive

CCCCCCCCCC(=O)Oc1ccc(/C(=C(/C)c2ccccc2)c2ccc(OCCN3CCCC3)cc2)cc1 : inactive
COc1ccc([C@@H]2[C@@H](Cl)C(=O)N2c2cc(OC)c(OC)c(OC)c2)cc1C : active
COc1ccccc1NC(=O)c1sc2ncn(CCOc3ccccc3)c(=O)c2c1C : inactive

Look up the recorded call for O=C1c2ccc3c4c(ccc(c24)C(=O)N1CCCCO)C(=O)N(CCCCO)C3=O in this test.
inactive

Look up the recorded call for O=C(c1ccccc1)c1nn(-c2cccc(Cl)c2)c2nc3nc(-c4ccccc4)cc(=O)n3nc12 in this test.
inactive

Look up the recorded call for O=C(NCCN1CCOCC1)c1cc2c(Oc3ccc(NC(=O)C4(C(=O)Nc5ccc(F)cc5)CC4)cc3)ccnc2[nH]1 in this test.
inactive

====

Documented TGI across a set of compounds
# System: SNB-19 CNS
# protocol_notes: NCI tumour cell line growth inhibition, 48 h

Cc1nc2ccccc2c(=O)n1/N=C(\N=Nc1cc(Cl)ccc1Cl)c1ccc(N(C)C)cc1 : > 100 µM
COc1ccc(N2C(=O)[C@@H]3[C@@H]4CC(C)CC[C@@H]4c4c([nH]c5ccccc45)[C@@H]3C2=O)cc1 (stereo not given in full) : 29.6 µM
COc1oc(C2C/C(=C/C(C)=C/C(C)=C/C(C)=C/c3ccc([N+](=O)[O-])cc3)CO2)c(C)c(=O)c1C (stereo not given) : 73.7 µM
O=C(C=P(c1ccccc1)(c1ccccc1)c1ccccc1)c1ccccc1-c1ccccc1C(=O)C=P(c1ccccc1)(c1ccccc1)c1ccccc1 : 1.58 µM

Sample Cc1ccc([N+](=O)[O-])cc1S(=O)(=O)Nc1ccc(C2=NN(S(=O)(=O)c3cc([N+](=O)[O-])ccc3C)C(c3ccccc3O)C2)cc1 (stereo not given) — what was its TGI?
> 100 µM

Sample COC1=CC(=O)C2(C=C1OC)OC[C@H]1Oc3c(ccc4c3C=CC(C)(C)O4)C(=O)[C@H]12 (stereo not given in full) — what was its TGI?
> 100 µM

====

# Tested on: KM12 colon
# protocol_notes: NCI tumour cell line growth inhibition, 48 h
assay_readout: GI50

These recorded examples may help you get a feel for the data.
COc1ccccc1NC(=O)c1sc2ncn(CCOc3ccccc3)c(=O)c2c1C : 1430 nM
Nc1nc(SCC#CCCl)c2[nH]cnc2n1 : 6140 nM
COc1ccc([C@@H]2[C@@H](Cl)C(=O)N2c2cc(OC)c(OC)c(OC)c2)cc1C : 41.9 nM
C=C(CN1CCN(c2cc(C(F)(F)F)cc(C(F)(F)F)c2)CC1)c1ccc(C(=O)Nc2ccccc2N)cc1 : 3470 nM
CC(=O)[CH-]C(=O)c1ccccc1.CC(=O)[CH-]C(=O)c1ccccc1.Cl.[O-]CCc1ccccn1.[O-]CCc1ccccn1.[Ti+4] : 41400 nM
Cc1cnc(C(=O)Nc2nc3ccc(S(=O)(=O)Nc4ccc(C(C)(C)C)cc4)cc3[nH]2)cn1 : 349 nM
C=C1C(C)C2C(Cc3ccccc3)NC(=O)C23C(OC(C)=O)C=CC(C)(O)C(=O)C(C)C/C=C/C3C1O (stereo not drawn) : 163000 nM
COc1cc(OC)c(/C=C/S(=O)(=O)Cc2ccc(OC)c(N)n2)c(OC)c1 : < 10 nM

Sample O=C(c1ccccc1)c1nn(-c2cccc(Cl)c2)c2nc3nc(-c4ccccc4)cc(=O)n3nc12 — what was its GI50?
> 25000 nM

Sample O=C(/C=C/c1ccco1)Nc1ncc(Cc2cc(Cl)ccc2Cl)s1 — what was its GI50?
41.9 nM

Sample OC[C@H]1C[C@](O)(c2ccccc2Cl)[C@@H](c2ccccc2Cl)O1 — what was its GI50?
25400 nM

Sample O=C(O)CCCCCNCc1cc2cc3c(cc2c2cc(OCc4ccccc4)ccc12)OCO3 — what was its GI50?
1630 nM

Sample N#Cc1cnn(C(=O)c2nn(-c3ccc(Cl)cc3)cc2O)c1N — what was its GI50?
374 nM

====

Documented TGI across a set of molecules
# Tested on: M14 melanoma
# protocol_notes: NCI tumour cell line growth inhibition, 48 h

These recorded examples may help you get a feel for the data.
CC(=O)CC(O)(C(F)(F)Cl)C(F)(Cl)Cl (configuration not stated) : > 10 µM
CN(N=O)c1ccc(/C=C/c2ccnc3ccccc23)cc1 : > 100 µM
O=C(O)CN(CCN(CC(=O)O)CC(=O)O)CC(=O)O.[Cu+2].[Na+] : > 100 µM
ClC/C=C/CSc1ncnc2nc[nH]c12 : > 100 µM
CN1N=C(c2ccncc2)OC1c1ccc(C(F)(F)F)cc1 (configuration not stated) : > 100 µM

Sample C#Cc1c(C)c(/C=C/C(C)=C\C(=O)OC)n(C)c1C — what was its TGI?
> 100 µM

Sample C=CCN(C(C)=O)c1cc(OCc2ccccc2)c2c(c1)c(C)cn2S(=O)(=O)c1ccccc1 — what was its TGI?
> 100 µM

Sample C=CCSC1=N/C(=C\c2ccc(C)cc2)C(=O)N1CC=C — what was its TGI?
> 100 µM

Sample CCn1c(=O)c2nc(SC)sc2n(-c2ccccc2)c1=S — what was its TGI?
> 100 µM

Sample CC(=O)O[C@H]1CSC[C@@H](OC(C)=O)C1[N+](=O)[O-] (some centres not stated) — what was its TGI?
87.7 µM

Sample CC(=O)N(C(=O)CC(=O)N1N=C(C)C(N=Nc2cccc([N+](=O)[O-])c2)C1=O)c1ccc(Cl)cc1 (configuration not stated) — what was its TGI?
> 10 µM

Sample COc1cccc(NC(=O)/C(CS(=O)(=O)CCC(C(C)=O)C(C)=O)=N\NC(C)(C)C)c1 — what was its TGI?
> 100 µM

Sample O=C1N(c2ccc(Cl)cc2)C(=O)C2(SC=NN2Cc2ccccc2)N1c1ccc(Cl)cc1 (configuration not stated) — what was its TGI?
> 100 µM

Sample COC(=O)C(=O)C(C(=O)C(=O)Nc1cc(C)ccc1C)c1nc2ccccc2[nH]c1=O (configuration not stated) — what was its TGI?
> 100 µM

Sample CN1CCN(Cc2ccc(NC(=O)c3cncc(C#Cc4c(N)ncc5ccccc45)c3)cc2C(F)(F)F)CC1 — what was its TGI?
0.885 µM

====

Documented TGI across a set of molecules
# System: DMS 273 small cell lung
# protocol_notes: NCI tumour cell line growth inhibition, 48 h

C(=C\c1ccc2ccccc2c1Nc1ccccc1)/c1ccccc1 : > 100 µM

# next molecule below
Sample N/N=C1/C(=O)N(c2ccc(Cl)cc2)C(=O)C(=O)C1c1nc2ccccc2s1 (configuration not stated) — what was its TGI?
> 100 µM

====

Documented TGI across a set of compounds
# System: CAKI-1 renal
# protocol_notes: NCI tumour cell line growth inhibition, 48 h

C=CCN(C(C)=O)c1cc(OCc2ccccc2)c2c(c1)c(C)cn2S(=O)(=O)c1ccccc1 : > 54.7 µM
COC(=O)c1sc2c(c1C(=O)OC)C(=Nc1ccc(OC)cc1)SC2=Nc1ccc(OC)cc1 : 5.84 µM
Cc1n[nH]c(=O)c2c3c([nH]c12)-c1ccccc1C3 : > 100 µM
COc1ccc(/C=C(\C#N)c2ccccn2)cc1OC : > 100 µM
C1CCC(CC2CCC(NC3=NCCO3)CC2)CC1 (stereo unspecified) : 50.7 µM

# next compound below
Sample N#C/C(=C/c1ccc([N+](=O)[O-])o1)c1ccccc1 — what was its TGI?
> 100 µM

====

# Tested on: SR leukemia
# protocol_notes: NCI tumour cell line growth inhibition, 48 h
assay_readout: GI50

These recorded examples may help you get a feel for the data.
CC1CCc2c(C(=O)Nc3ncc(Cc4cccc([N+](=O)[O-])c4)s3)csc2C1 (stereo not given) : 0.176 µM
O=C(c1ccccc1)c1nn(-c2cccc(Cl)c2)c2nc3nc(-c4ccccc4)cc(=O)n3nc12 : > 25 µM
Cc1cnc(C(=O)Nc2nc3ccc(S(=O)(=O)Nc4ccc(C(C)(C)C)cc4)cc3[nH]2)cn1 : 0.133 µM
O=C1c2ccc3c4c(ccc(c24)C(=O)N1CCCCO)C(=O)N(CCCCO)C3=O : 0.745 µM
COc1ccccc1NC(=O)c1sc2ncn(CCOc3ccccc3)c(=O)c2c1C : 0.856 µM

Sample Oc1ccccc1/C=N\NC(=S)Nc1ccc(F)cc1 — what was its GI50?
0.415 µM

Sample COc1cc(C(=O)/C=C/c2c[nH]c3ccccc23)cc(OC)c1OC — what was its GI50?
< 0.01 µM

Sample COC(=O)[C@]12CC[C@@H](C)[C@H](C)[C@@H]1C1=CC[C@@H]3[C@@]4(C)C[C@@H](OC(C)=O)[C@H](OC(C)=O)[C@@](C)(COC(C)=O)[C@@H]4[C@H](O)C[C@@]3(C)[C@]1(C)CC2 — what was its GI50?
0.465 µM

Sample CCCCCn1sc(=O)n(Cc2ccc(CNC(=O)C(C)c3ccc(CC(C)C)cc3)cc2)c1=O (stereo not given) — what was its GI50?
0.452 µM

Sample COc1ccc([C@@H]2[C@@H](Cl)C(=O)N2c2cc(OC)c(OC)c(OC)c2)cc1C — what was its GI50?
0.0397 µM

Sample COc1ccc(/C=C\c2cc(OC)c(OC)c(OC)c2)cc1NC(=O)/C=C/c1cc(OC)c(OC)c(OC)c1 — what was its GI50?
0.854 µM

Sample NS(=O)(=O)c1cccc(Nc2cc(-c3ccc(F)cc3)[nH]n2)c1 — what was its GI50?
12.5 µM

Sample Cc1ccc(C)c(N2CCN(c3ccncc3N)CC2)c1 — what was its GI50?
15.6 µM

Sample C=CC[PH+](c1ccccc1)c1ccccc1.C=CC[PH+](c1ccccc1)c1ccccc1.[Pt+2].[S-]c1nc2ccccc2[nH]1.[S-]c1nc2ccccc2[nH]1 — what was its GI50?
2.71 µM

Sample CSc1ccc(-c2cn3ccsc3n2)cc1 — what was its GI50?
1.25 µM
